Where do the numbers come from? From ChEMBL document CHEMBL4602621.

I'd appreciate it if you could supply inhibition values for the items below.
target_system: 11-beta-hydroxysteroid dehydrogenase 1 (Mus musculus) (UniProt P50172)
Sequence (P50172 whole entry, looked up): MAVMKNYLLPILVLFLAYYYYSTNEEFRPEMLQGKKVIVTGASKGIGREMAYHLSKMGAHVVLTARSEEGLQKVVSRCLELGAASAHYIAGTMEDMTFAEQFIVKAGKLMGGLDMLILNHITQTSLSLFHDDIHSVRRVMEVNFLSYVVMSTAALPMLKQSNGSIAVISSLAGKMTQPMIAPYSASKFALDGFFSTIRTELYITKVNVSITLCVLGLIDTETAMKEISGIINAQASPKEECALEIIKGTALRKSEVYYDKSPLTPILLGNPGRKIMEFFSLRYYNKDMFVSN
protocol_summary: In vivo inhibition of 11 beta-HSD1 in brain of mouse at 20 mg/kg, po relative to control
Type: functional, organism-based
Numbers only, in %.

molecule | inhibition (%)
CC1CN(CC(=O)NC2C3CC4CC2CC(C(N)=O)(C4)C3)S(=O)(=O)N(c2c(Cl)cc(C(F)(F)F)cc2Cl)C1 (centres undefined) | 82
Cc1cc(Cl)c(N2CC(C)CN(CC(=O)NC3C4CC5CC3CC(C(N)=O)(C5)C4)S2(=O)=O)c(Cl)c1 (centres undefined) | 69
NC(=O)C12CC3CC(C1)C(NC(=O)CN1CCCN(c4c(Cl)cc(C(F)(F)F)cc4Cl)S1(=O)=O)C(C3)C2 (centres undefined) | 45.8

The molecule CC1CN(CC(=O)NC2C3CC4CC2CC(C(N)=O)(C4)C3)S(=O)(=O)N(c2c(Cl)cc(Br)cc2Cl)C1 (centres undefined) showed inhibition equal to 41.1
